SUBJECT OF TEST: Induced myeloid leukemia cell differentiation protein Mcl-1 [K194A,K197A,R201A] (Homo sapiens, UniProt Q07820, K194A/K197A/R201A)
Construct: gene MCL1
Sequence (Q07820 whole entry K194A/K197A/R201A, looked up): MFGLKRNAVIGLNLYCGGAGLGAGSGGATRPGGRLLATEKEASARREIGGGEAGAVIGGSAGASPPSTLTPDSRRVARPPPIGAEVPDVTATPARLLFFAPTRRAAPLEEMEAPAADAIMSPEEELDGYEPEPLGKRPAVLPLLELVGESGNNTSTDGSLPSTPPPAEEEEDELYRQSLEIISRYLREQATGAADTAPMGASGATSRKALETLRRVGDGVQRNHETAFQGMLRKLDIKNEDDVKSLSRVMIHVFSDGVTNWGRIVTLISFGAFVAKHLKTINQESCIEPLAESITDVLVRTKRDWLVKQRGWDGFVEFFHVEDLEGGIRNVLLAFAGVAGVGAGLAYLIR
PROTOCOL DETAILS: Protein-Protein Interaction Assay: MCL-1/Noxa BH3 Peptide (MCL-1 Assay)
EXPERIMENTAL ENDPOINT: IC50 (nM)
The answer is to be given in nM; state only the numeric part.

Would you please look over these solved cases?
| COMPOUND | QUANTITATIVE READOUT |
| --- | --- |
| CCc1c2c(nn1C)C(CCC(C)(C)O)OCCCCn1c(C(=O)O)c(CCCOc3cccc4cc(F)ccc34)c3ccc(Cl)c-2c31 (single isomer, unassigned; form 1) [US11440923, Example 75] | 0.37 |
| CCc1c2c(nn1C)C(C(F)(F)F)OCCCCn1c(C(=O)O)c(CCCOc3cccc4ccccc34)c3ccc(Cl)c-2c31 (single isomer, unassigned; form 2) [US11440923, Example 34] | 370 |
| Cc1c2c(nn1C)C(CCN1CCOCC1)OCCCCn1c(C(=O)O)c(CCCOc3cccc4cc(F)ccc34)c3ccc(F)c-2c31 (stereo not given) [US11440923, Example 19] | 0.79 |
| CCc1c2c(nn1C)C(CCOC)OCCCCn1c(C(=O)O)c(CCCOc3cccc4cc(F)ccc34)c3ccc(Cl)c-2c31 (single isomer, unassigned; form 1) [US11440923, Example 42] | 0.33 |

Next, consider the following compound.
Write down IC50 measured for item CCC1OCCCCn2c(C(=O)O)c(CCCOc3cccc4ccccc34)c3ccc(Cl)c(c32)-c2c1nn(C)c2C (single isomer, unassigned; form 1) [US11440923, Example 29] 1

###

SUBJECT OF TEST: Induced myeloid leukemia cell differentiation protein Mcl-1 [K194A,K197A,R201A] (Homo sapiens, UniProt Q07820, K194A/K197A/R201A)
PROTOCOL DETAILS: Protein-Protein Interaction Assay: MCL-1/Noxa BH3 Peptide (MCL-1 Assay)
EXPERIMENTAL ENDPOINT: IC50 (nM)
# number only, unit nM dropped from output

Example compounds with recorded IC50:
| COMPOUND | IC50 / nM |
| --- | --- |
| CCc1c2c(nn1C)C(CCC1CCOCC1)OCCCCn1c(C(=O)O)c(CCCOc3cccc4cc(F)ccc34)c3ccc(Cl)c-2c31 (single isomer, unassigned) [US11440923, Example 63] | 0.88 |
| CCc1c2c(nn1C)C(CC(C)(C)O)OCCCCn1c(C(=O)O)c(CCCOc3cccc4cc(F)ccc34)c3ccc(Cl)c-2c31 (single isomer, unassigned; form 2) [US11440923, Example 54] | 47 |
| Cc1c2c(nn1C)C(CCN1CCOCC1)OCCCCn1c(C(=O)O)c(CCCOc3cccc4cc(F)ccc34)c3ccc(Cl)c-2c31 (configuration not stated) | 1.2 |
| CCc1c2c(nn1C)C(CCN1CCOCC1)OCCCCn1c(C(=O)O)c(CCCOc3cccc4cc(F)ccc34)c3ccc(Cl)c-2c31 (single isomer, unassigned) | 0.63 |
| CCc1c2c(nn1C)C(C1CC1)OCCCCn1c(C(=O)O)c(CCCOc3cccc4cc(F)ccc34)c3ccc(Cl)c-2c31 (single isomer, unassigned; form 1) [US11440923, Example 39] | 0.72 |

Return value of IC50 for input CCC1OCCCCn2c(C(=O)O)c(CCCOc3cccc4ccccc34)c3ccc(Cl)c(c32)-c2c1nn(C)c2C (single isomer, unassigned; form 2) [US11440923, Example 30] , no commentary. 200

Return IC50 (reported value) for this compound: Cc1c2c(nn1C)C(C1CC1)OCCCCn1c(C(=O)O)c(CCCOc3cccc4ccccc34)c3ccc(Cl)c-2c31 (single isomer, unassigned; form 1) [US11440923, Example 35] 0.73
